# runDescription: AUClast in CD-1 mouse at 3 mg/kg, iv
# Format: ADME, organism-based
# Design: dose 3 mg/kg, route iv
# assaySetup: in vivo
The reader will find reported AUC(0-t) values listed item by item below.

>  <smilesRecord>
O=C1CCCCCCCCCCCNC(=O)[C@@H](Cc2ccccc2)NC(=O)/C(c2cccc3ccccc23)=C\C=C(\c2ccccc2)CN1

>  <unitOfMeasure>
ng·h/mL

>  <AUC(0-t)>
4320

$$$$
>  <smilesRecord>
CC(C)[C@H]1NC(=O)/C(c2ccccc2)=C\C=C(\c2ccccc2)CNC(=O)CCCCCCCCCCCNC1=O

>  <unitOfMeasure>
ng·h/mL

>  <AUC(0-t)>
887

$$$$

* * *

# runDescription: AUClast in CD-1 mouse at 25 mg/kg, ip
# Format: ADME, organism-based
# Design: dose 25 mg/kg, route ip
# assaySetup: in vivo
readoutKind: AUC(0-t) (ng·h/mL)

>  <smilesRecord>
O=C1CCCCCCCCCCCNC(=O)[C@@H](Cc2ccccc2)NC(=O)/C(c2cccc3ccccc23)=C\C=C(\c2ccccc2)CN1

>  <val>
17000

$$$$
>  <smilesRecord>
CC(C)[C@H]1NC(=O)/C(c2ccccc2)=C\C=C(\c2ccccc2)CNC(=O)CCCCCCCCCCCNC1=O

>  <val>
4400

$$$$

* * *

# runDescription: Cmax in CD-1 mouse at 30 mg/kg, po
# Assay type: ADME, organism-based
# Design: dose 30 mg/kg, route po
# assaySetup: in vivo
The reader will find reported Cmax values listed item by item below.
readoutKind: Cmax

>  <smilesRecord>
CC(C)[C@H]1NC(=O)/C(c2ccccc2)=C\C=C(\c2ccccc2)CNC(=O)CCCCCCCCCCCNC1=O

>  <val>
1380 ng/mL

$$$$
>  <smilesRecord>
O=C1CCCCCCCCCCCNC(=O)[C@@H](Cc2ccccc2)NC(=O)/C(c2cccc3ccccc23)=C\C=C(\c2ccccc2)CN1

>  <val>
2670 ng/mL

$$$$

* * *

# runDescription: AUClast in CD-1 mouse at 30 mg/kg, po
# Assay type: ADME, organism-based
# Parameters: dose 30 mg/kg, route po
# assaySetup: in vivo
The reader will find reported AUC(0-t) values listed item by item below.
readoutKind: AUC(0-t) (ng·h/mL)

>  <smilesRecord>
CC(C)[C@H]1NC(=O)/C(c2ccccc2)=C\C=C(\c2ccccc2)CNC(=O)CCCCCCCCCCCNC1=O

>  <readoutKind>
AUC(0-t)

>  <val>
2190

$$$$
>  <smilesRecord>
O=C1CCCCCCCCCCCNC(=O)[C@@H](Cc2ccccc2)NC(=O)/C(c2cccc3ccccc23)=C\C=C(\c2ccccc2)CN1

>  <readoutKind>
AUC(0-t)

>  <val>
9470

$$$$

* * *

# System: KB
# runDescription: Reversal of vinorelbine resistance in human KB cells assessed as reduction in cell viability incubated for 72 hrs in presence of vinorelbine (reference value: 7.4+/-2.2 nM)
# Type: functional, cell-based
The reader will find reported IC50 values listed item by item below.
readoutKind: IC50 (nM)

>  <compound>
COc1ccc(CCN(C)CCCC(C#N)(c2ccc(OC)c(OC)c2)C(C)C)cc1OC (stereo not drawn)

>  <val>
4.4

$$$$
>  <compound>
CC(C)[C@H]1NC(=O)/C(c2ccccc2)=C\C=C(\c2ccccc2)CNC(=O)CCCCCCCCCCCNC1=O

>  <val>
2.2

$$$$
>  <compound>
O=C1CCCCCCCCCCCNC(=O)[C@@H](Cc2ccccc2)NC(=O)/C(c2cccc3ccccc23)=C\C=C(\c2ccccc2)CN1

>  <val>
0.7

$$$$

* * *

# runDescription: Cytotoxicity against human HEK293T cells assessed as reduction in cell viability incubated for 48 hrs by CCK-8 assay
# Type: toxicity, cell-based, HEK-293T
readoutKind: IC50 at 48 h

>  <smilesRecord>
CC(C)[C@H]1NC(=O)/C(c2ccccc2)=C\C=C(\c2ccccc2)CNC(=O)CCCCCCCCCCCNC1=O

>  <val>
> 100 µM

$$$$
>  <smilesRecord>
O=C1CCCCCCCCCCCNC(=O)[C@@H](Cc2ccccc2)NC(=O)/C(c2cccc3ccccc23)=C\C=C(\c2ccccc2)CN1

>  <val>
> 100 µM

$$$$

* * *

# runDescription: AUCinf in CD-1 mouse at 25 mg/kg, ip
# Type: ADME, organism-based
# Design: dose 25 mg/kg, route ip
# assaySetup: in vivo
readoutKind: AUC(0-inf) (ng·h/mL)

>  <smilesRecord>
O=C1CCCCCCCCCCCNC(=O)[C@@H](Cc2ccccc2)NC(=O)/C(c2cccc3ccccc23)=C\C=C(\c2ccccc2)CN1

>  <readoutKind>
AUC(0-inf)

>  <val>
20600

$$$$
>  <smilesRecord>
CC(C)[C@H]1NC(=O)/C(c2ccccc2)=C\C=C(\c2ccccc2)CNC(=O)CCCCCCCCCCCNC1=O

>  <readoutKind>
AUC(0-inf)

>  <val>
5100

$$$$

* * *

# Tested on: KBv200
# runDescription: Reversal of vinorelbine resistance in human KBv200 cells assessed as reduction in cell viability incubated for 72 hrs in presence of vinorelbine (reference value: 224 to 228.30 nM)
# Format: functional, cell-based
# assaySetup: KBv200, 72 h, read-out: IC50
The reader will find reported IC50 values listed item by item below.
readoutKind: IC50 (nM)

>  <molecule>
CC(C)[C@H]1NC(=O)/C(c2cccc3ccccc23)=C\C=C(\c2ccccc2)CNC(=O)CCCCCCCCCCCNC1=O

>  <val>
0.21

$$$$
>  <molecule>
COc1ccc(/C2=C/C=C(/c3ccccc3)CNC(=O)CCCCCCCCCCCNC(=O)[C@H](C(C)C)NC2=O)cc1OC

>  <val>
3.65

$$$$
>  <molecule>
CC(C)[C@@H]1NC(=O)/C(c2ccccc2)=C\C=C/CNC(=O)CCCCCCCCCCCNC1=O

>  <val>
3.76

$$$$
>  <molecule>
O=C1CCCCCCCCCCCNC(=O)[C@H](Cc2ccccc2)NC(=O)/C(c2ccccc2)=C\C=C(\c2ccccc2)CN1

>  <val>
0.38

$$$$
>  <molecule>
CC(C)[C@H](NC(=O)/C(=C/C=C(/CNC(=O)CCCCCCCCCCCN)c1ccccc1)c1ccccc1)C(=O)O

>  <val>
199

$$$$
>  <molecule>
COc1ccc(/C2=C/C=C(/c3ccccc3)CNC(=O)CCCCCCCCCCCNC(=O)[C@H](C(C)C)NC2=O)cc1

>  <val>
0.44

$$$$
>  <molecule>
COc1ccc(/C2=C/C=C(/c3ccccc3)C(=O)N[C@@H](C(C)C)C(=O)NCCCCCCCCCCCC(=O)NC2)cc1

>  <val>
1.54

$$$$
>  <molecule>
CC(=O)N[C@@H]1[C@@H](OC(C)=O)[C@H](OC(C)=O)[C@@H](COC(C)=O)O[C@H]1n1cc(C[C@@H]2NC(=O)/C(c3ccccc3)=C\C=C(\c3ccccc3)CNC(=O)CCCCCCCCCCCNC2=O)nn1

>  <val>
248

$$$$
>  <molecule>
CC(C)[C@@H]1NC(=O)/C(c2ccccc2)=C\C=C(\c2ccccc2)CNC(=O)CCOCCOCCOCCNC1=O

>  <val>
127

$$$$
>  <molecule>
CC(C)[C@H]1NC(=O)/C(c2ccccc2)=C\C=C(\c2ccccc2)CNC(=O)CCCCCCCCCCCNC1=O

>  <val>
0.74

$$$$
>  <molecule>
CC(C)[C@@H]1NC(=O)/C(c2ccccc2)=C/C=C(/c2ccccc2)CNC(=O)CCCCCCCNC1=O

>  <val>
46.6

$$$$
>  <molecule>
C#CC[C@@H]1NC(=O)/C(c2ccccc2)=C\C=C(\c2ccccc2)CNC(=O)CCCCCCCCCCCNC1=O

>  <val>
3.64

$$$$
>  <molecule>
CC(C)[C@@H]1NC(=O)/C(c2ccccc2)=C\C=C(\c2ccccc2)CNC(=O)CCCCCCCCCNC1=O

>  <val>
4.57

$$$$
>  <molecule>
CC(C)[C@@H]1NC(=O)/C(c2ccc(Br)cc2)=C\C=C(\c2ccccc2)CNC(=O)CCCCCCCCCCCNC1=O

>  <val>
0.4

$$$$
>  <molecule>
O=C1CCCCCCCCCCCNC(=O)[C@@H]2CCCN2C(=O)/C(c2ccccc2)=C\C=C(\c2ccccc2)CN1

>  <val>
8.63

$$$$
>  <molecule>
O=C1CCCCCCCCCCCNC(=O)[C@@H](Cc2ccccc2)NC(=O)/C(c2cccc3ccccc23)=C\C=C(\c2ccccc2)CN1

>  <val>
0.02

$$$$
>  <molecule>
CC(C)C[C@@H]1NC(=O)/C(c2ccccc2)=C\C=C(\c2ccccc2)CNC(=O)CCCCCCCCCCCNC1=O

>  <val>
0.55

$$$$
>  <molecule>
CC(C)[C@@H]1NC(=O)/C(c2ccccc2)=C\C=C(\c2ccc(F)cc2)CNC(=O)CCCCCCCCCCCNC1=O

>  <val>
0.42

$$$$
>  <molecule>
NCCCC[C@@H]1NC(=O)/C(c2ccccc2)=C\C=C(\c2ccccc2)CNC(=O)CCCCCCCCCCCNC1=O

>  <val>
289

$$$$
>  <molecule>
O=C1CCCCCCCCCCCNC(=O)[C@H](Cc2cn([C@@H]3O[C@H](CO)[C@H](O)[C@H](O)[C@H]3O)nn2)NC(=O)/C(c2ccccc2)=C\C=C(\c2ccccc2)CN1

>  <val>
140

$$$$
>  <molecule>
O=C1CCCCCCCCCCCNC(=O)[C@H](Cc2cn([C@@H]3O[C@H](CO)[C@@H](O)[C@H](O)[C@H]3O)nn2)NC(=O)/C(c2ccccc2)=C\C=C(\c2ccccc2)CN1

>  <val>
169

$$$$
>  <molecule>
CC(C)[C@@H]1NC(=O)/C(c2ccccc2)=C\C=C(\c2ccccc2)CNC(=O)CCCCCCCCCCCNC1=O

>  <val>
1.19

$$$$
>  <molecule>
CC(C)[C@@H]1NC(=O)/C(c2cccc3ccccc23)=C\C=C(\c2ccccc2)CNC(=O)CCCCCCCCCCCNC1=O

>  <val>
0.3

$$$$
>  <molecule>
NC(=O)CC[C@@H]1NC(=O)/C(c2ccccc2)=C\C=C(\c2ccccc2)CNC(=O)CCCCCCCCCCCNC1=O

>  <val>
210

$$$$
>  <molecule>
O=C1CCCCCCCCCCCNC(=O)CNC(=O)/C(c2ccccc2)=C\C=C(\c2ccccc2)CN1

>  <val>
24.5

$$$$
>  <molecule>
CSCC[C@@H]1NC(=O)/C(c2ccccc2)=C\C=C(\c2ccccc2)CNC(=O)CCCCCCCCCCCNC1=O

>  <val>
1.24

$$$$
>  <molecule>
CC(=O)N[C@@H]1[C@@H](O)[C@H](O)[C@@H](CO)O[C@H]1n1cc(C[C@@H]2NC(=O)/C(c3ccccc3)=C\C=C(\c3ccccc3)CNC(=O)CCCCCCCCCCCNC2=O)nn1

>  <val>
152

$$$$
>  <molecule>
CC(C)C1NC(=O)/C(c2ccccc2)=C\C=C(\c2ccccc2)CNC(=O)CCCCCCCCCCCNC1=O (centres undefined)

>  <val>
1.13

$$$$
>  <molecule>
O=C1CCCCCCCCCCCNC(=O)[C@H](Cc2ccc(O)cc2)NC(=O)/C(c2ccccc2)=C\C=C(\c2ccccc2)CN1

>  <val>
1.76

$$$$
